# protocol-description: Sodium fluorescein permeability across iPSC-derived BMEC monolayer on Transwell
# Format: in vitro ADME, human
# conditions: human, IMR90-4 iPSC-derived BMECs co-cultured with NPC-derived astrocytes and neurons, 48 h; read-out: sodium fluorescein permeability Pe
observable: Papp at 60 min, 10 μM (×10⁻⁶ cm/s)
Value expressed in ×10⁻⁶ cm/s; do not type the unit.

## Input Let me know recorded Papp at 60 min, 10 μM for O=C1OC2(c3ccc(O)cc3Oc3cc(O)ccc32)c2ccccc21 [sodium fluorescein, Sodium fluorescein] , thanks.
## Output 0.2

###

# protocol-description: Sodium fluorescein permeability across iPSC-derived BMEC monolayer on Transwell
# Type: in vitro ADME, human
# conditions: human, monocultured CS03iCTRn2-derived BMECs, 48 h; read-out: fluorescein permeability Pe
observable: Papp at 60 min, 10 μM (×10⁻⁶ cm/s)
Value expressed in ×10⁻⁶ cm/s; do not type the unit.

## Input Let me know recorded Papp at 60 min, 10 μM for O=C1OC2(c3ccc(O)cc3Oc3cc(O)ccc32)c2ccccc21 [sodium fluorescein, Sodium fluorescein] , thanks.
## Output 0.81

###

# protocol-description: Sodium fluorescein permeability across iPSC-derived BMEC monolayer on Transwell
# Assay type: in vitro ADME, human
# conditions: human, IMR90-4 iPSC-derived BMECs co-cultured with primary rat astrocytes, 48 h; read-out: sodium fluorescein permeability Pe
observable: Papp at 60 min, 10 μM (×10⁻⁶ cm/s)
Value expressed in ×10⁻⁶ cm/s; do not type the unit.

## Input Let me know recorded Papp at 60 min, 10 μM for O=C1OC2(c3ccc(O)cc3Oc3cc(O)ccc32)c2ccccc21 [sodium fluorescein, Sodium fluorescein] , thanks.
## Output 0.19

###

# protocol-description: Sodium fluorescein permeability across iPSC-derived BMEC monolayer on Transwell
# Assay type: in vitro ADME, human
# conditions: human, monocultured IMR90-4 iPSC-derived BMECs, 48 h; read-out: sodium fluorescein permeability Pe
observable: Papp at 60 min, 10 μM (×10⁻⁶ cm/s)
Value expressed in ×10⁻⁶ cm/s; do not type the unit.

## Input Let me know recorded Papp at 60 min, 10 μM for O=C1OC2(c3ccc(O)cc3Oc3cc(O)ccc32)c2ccccc21 [sodium fluorescein, Sodium fluorescein] , thanks.
## Output 0.48

###

# protocol-description: Sodium fluorescein permeability across iPSC-derived BMEC monolayer on Transwell
# Format: in vitro ADME, human
# conditions: human, isogenic co-culture: CS03iCTRn2-derived BMECs with neurons:astrocytes (1:3), 48 h; read-out: fluorescein permeability Pe
observable: Papp at 60 min, 10 μM (×10⁻⁶ cm/s)
Value expressed in ×10⁻⁶ cm/s; do not type the unit.

## Input Let me know recorded Papp at 60 min, 10 μM for O=C1OC2(c3ccc(O)cc3Oc3cc(O)ccc32)c2ccccc21 [sodium fluorescein, Sodium fluorescein] , thanks.
## Output 0.062
